Reference source: paper PMC5729604

- Tested on: human peripheral blood mononuclear cells (PBMCs)
- Type: cell-based
- Settings: 72 h
Kind request: treat 10 µg/mL as inclusive, so (LD0) PBMCs at 10 µg/mL or higher is True, anything lower is False.

Smiles representation: CC(=NN=C1SC(=Cc2cn(-c3ccccc3)nc2-c2ccccc2)C(=O)N1c1ccc(Cl)cc1)c1nc2ccccc2[nH]1
Classification: True
//
Smiles representation: CC(=NN=C1SC(=C2C(=O)Nc3ccccc32)C(=O)N1c1ccc(Cl)cc1)c1cc2ccccc2o1
Classification: True
//
Smiles representation: CC(=NN=C1SC(=Cc2cn(-c3ccccc3)nc2-c2ccc(Cl)cc2)C(=O)N1c1ccccc1)c1cc2ccccc2o1
Classification: False
//
Smiles representation: COc1ccc(-c2nn(-c3ccccc3)cc2C=C2SC(=NN=C(C)c3nc4ccccc4[nH]3)N(c3ccc(Cl)cc3)C2=O)cc1
Classification: False
//
Smiles representation: CC(=NN=C1SC(=Cc2cn(-c3ccccc3)nc2-c2ccccc2)C(=O)N1c1ccc(Cl)cc1)c1cc2ccccc2o1
Classification: True
//
Smiles representation: CC(=NN=C1SC(=Cc2cn(-c3ccccc3)nc2-c2ccccc2)C(=O)N1c1ccccc1)c1cc2ccccc2o1
Classification: True
//
Smiles representation: CC(=NN=C1SC(=Cc2cn(-c3ccccc3)nc2-c2ccc(Cl)cc2)C(=O)N1c1ccc(Cl)cc1)c1cc2ccccc2o1
Classification: False

====

# LD50 annotations
- Test system: human peripheral blood mononuclear cells (PBMCs)
- Type: cell-based
- Settings: 72 h
Property label: LD50 (µg/mL)

Smiles representation: CC(=NN=C1SC(=C2C(=O)Nc3ccccc32)C(=O)N1C1CCCCC1)c1cc2ccccc2o1
Property label: LD50
Reported: 14.32
--
Smiles representation: CC(=NN=C1SC(=Cc2cn(-c3ccccc3)nc2-c2ccc(Cl)cc2)C(=O)N1C1CCCCC1)c1cc2ccccc2o1
Property label: LD50
Reported: 319.64
--
Smiles representation: COc1ccc(-c2nn(-c3ccccc3)cc2C=C2SC(=NN=C(C)c3cc4ccccc4o3)N(c3ccc(Cl)cc3)C2=O)cc1
Property label: LD50
Reported: 259.71
--
Smiles representation: CC(=NN=C1SC(=Cc2cn(-c3ccccc3)nc2-c2ccccc2)C(=O)N1c1ccc(Cl)cc1)c1nc2ccccc2[nH]1
Property label: LD50
Reported: 120.46
--
Smiles representation: COc1ccc(N2C(=O)C(=C3C(=O)Nc4ccccc43)SC2=NN=C(C)c2nc3ccccc3[nH]2)cc1
Property label: LD50
Reported: 136.76
--
Smiles representation: COc1ccc(-c2nn(-c3ccccc3)cc2C=C2SC(=NN=C(C)c3nc4ccccc4[nH]3)N(c3ccc(Cl)cc3)C2=O)cc1
Property label: LD50
Reported: 44.00
--
Smiles representation: CC(=NN=C1SC(=Cc2cn(-c3ccccc3)nc2-c2ccccc2)C(=O)N1C1CCCCC1)c1nc2ccccc2[nH]1
Property label: LD50
Reported: 43.40
